Assayed system: ERα (Homo sapiens)
Construct: purchased Life Technologies
Sequence (P03372 whole entry): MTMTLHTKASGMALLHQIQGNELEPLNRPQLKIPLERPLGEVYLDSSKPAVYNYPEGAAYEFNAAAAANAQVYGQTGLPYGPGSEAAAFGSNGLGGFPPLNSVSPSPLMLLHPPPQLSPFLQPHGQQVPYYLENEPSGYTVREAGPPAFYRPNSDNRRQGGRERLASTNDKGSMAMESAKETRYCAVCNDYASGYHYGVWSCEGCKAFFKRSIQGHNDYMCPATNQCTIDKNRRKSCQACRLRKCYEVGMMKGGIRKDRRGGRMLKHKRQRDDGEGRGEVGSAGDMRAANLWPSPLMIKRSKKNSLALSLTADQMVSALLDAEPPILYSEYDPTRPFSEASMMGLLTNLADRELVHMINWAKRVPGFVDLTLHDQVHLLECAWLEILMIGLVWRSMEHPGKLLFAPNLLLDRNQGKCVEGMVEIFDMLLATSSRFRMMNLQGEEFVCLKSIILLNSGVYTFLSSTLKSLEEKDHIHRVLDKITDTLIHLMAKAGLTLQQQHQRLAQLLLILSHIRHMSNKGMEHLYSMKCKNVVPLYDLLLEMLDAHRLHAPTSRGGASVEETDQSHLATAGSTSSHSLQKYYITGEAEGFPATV
Test details: green PolarScreen ERα Competitor Assay (fluorescence polarization)
Type: binding
Measurement conditions: 75 nM ERα, 4.5 nM fluormone, 2 h, room temperature
Assay metric: IC50 (µM)
Please state the figure in µM; there is no need to write the unit.

Here are 3 molecules together with their reported answers.
[[record]]
molecule = "O=c1oc2c(O)c(O)cc3c(=O)oc4c(O)c(O)cc1c4c23"
assayed_system = "ERα (Homo sapiens)"
assay_metric = "IC50"
measurement_units = "µM"
test_value = 0.0626

[[record]]
molecule = "O=C1C[C@@H](c2ccc(O)cc2)Oc2cc(O)cc(O)c21"
assayed_system = "ERα (Homo sapiens)"
assay_metric = "IC50"
measurement_units = "µM"
test_value = 0.968

[[record]]
molecule = "O=C(CCc1ccc(O)cc1)c1c(O)cc(O)cc1O"
assayed_system = "ERα (Homo sapiens)"
assay_metric = "IC50"
measurement_units = "µM"
test_value = 0.0745


// below: IC50 requested for another molecule
IC50 measured on O=C(OC1Cc2c(O)cc(O)cc2OC1c1cc(O)c(O)c(O)c1)c1cc(O)c(O)c(O)c1 (single isomer, unassigned; (-)) [EGCG, (−)-epigallocatechin-3-gallate] = 0.066
